Source of measurements: ChEMBL document CHEMBL4396963

For each of the compounds below, state its pIC50.
target: ALK tyrosine kinase receptor (Homo sapiens, UniProt Q9UM73, G1202R); assay: Inhibition of recombinant human N-terminal GST-tagged ALK (1058 to 1620 residues) cytoplasmic domain G1202R mutant using srctide as substrate incubated for 1 hr by mobility shift assay
Sequence (Q9UM73 19-1620 G1202R limits assumed): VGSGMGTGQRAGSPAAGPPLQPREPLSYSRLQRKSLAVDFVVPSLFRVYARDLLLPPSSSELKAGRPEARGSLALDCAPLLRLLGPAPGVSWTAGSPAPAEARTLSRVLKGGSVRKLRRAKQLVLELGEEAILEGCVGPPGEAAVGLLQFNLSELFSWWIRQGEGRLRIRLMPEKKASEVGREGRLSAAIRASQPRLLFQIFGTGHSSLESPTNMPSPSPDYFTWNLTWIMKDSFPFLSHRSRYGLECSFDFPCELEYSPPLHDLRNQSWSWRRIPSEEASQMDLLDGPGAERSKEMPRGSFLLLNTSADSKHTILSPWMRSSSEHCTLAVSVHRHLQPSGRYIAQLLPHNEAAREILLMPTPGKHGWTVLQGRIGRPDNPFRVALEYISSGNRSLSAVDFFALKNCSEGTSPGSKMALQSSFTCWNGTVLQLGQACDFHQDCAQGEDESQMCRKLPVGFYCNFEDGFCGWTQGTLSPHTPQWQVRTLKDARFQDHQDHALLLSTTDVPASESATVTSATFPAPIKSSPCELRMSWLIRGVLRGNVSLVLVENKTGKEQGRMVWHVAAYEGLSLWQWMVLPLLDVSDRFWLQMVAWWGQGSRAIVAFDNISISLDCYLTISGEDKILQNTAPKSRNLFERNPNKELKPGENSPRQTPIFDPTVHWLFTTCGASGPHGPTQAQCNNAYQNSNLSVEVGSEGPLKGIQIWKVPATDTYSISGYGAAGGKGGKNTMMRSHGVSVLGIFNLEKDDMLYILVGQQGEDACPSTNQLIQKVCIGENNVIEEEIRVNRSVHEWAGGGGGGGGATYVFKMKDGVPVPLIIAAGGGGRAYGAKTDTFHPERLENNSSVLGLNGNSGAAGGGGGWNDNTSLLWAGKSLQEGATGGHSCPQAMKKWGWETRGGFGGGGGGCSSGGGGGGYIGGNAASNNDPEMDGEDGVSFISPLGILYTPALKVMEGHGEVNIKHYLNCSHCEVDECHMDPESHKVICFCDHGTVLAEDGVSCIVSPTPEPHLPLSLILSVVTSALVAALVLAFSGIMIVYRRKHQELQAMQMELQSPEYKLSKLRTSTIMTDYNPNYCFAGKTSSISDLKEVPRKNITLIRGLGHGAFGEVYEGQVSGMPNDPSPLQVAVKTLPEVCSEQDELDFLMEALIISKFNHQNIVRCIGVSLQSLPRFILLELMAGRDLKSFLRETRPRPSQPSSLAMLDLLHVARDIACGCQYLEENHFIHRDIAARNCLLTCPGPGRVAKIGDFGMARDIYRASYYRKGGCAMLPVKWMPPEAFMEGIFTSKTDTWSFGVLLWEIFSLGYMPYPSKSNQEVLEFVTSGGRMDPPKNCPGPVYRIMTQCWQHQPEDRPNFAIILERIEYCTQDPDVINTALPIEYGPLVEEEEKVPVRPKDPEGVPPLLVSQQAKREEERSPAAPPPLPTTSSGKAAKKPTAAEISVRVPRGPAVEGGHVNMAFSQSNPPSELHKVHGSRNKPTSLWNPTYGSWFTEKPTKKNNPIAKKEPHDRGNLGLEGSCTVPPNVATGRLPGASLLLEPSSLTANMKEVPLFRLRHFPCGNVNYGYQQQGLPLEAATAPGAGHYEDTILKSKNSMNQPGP
Give bare numbers, as −log10 of the molar value.

Recorded pIC50, per entry:
Prompt: Consider the compound COc1cc(NC(=O)N2CCN(CCO)CC2)ccc1Nc1ncc(Cl)c(Nc2ccccc2NC(C)=O)n1 tested on ALK tyrosine kinase receptor (Homo sapiens, UniProt Q9UM73, G1202R); state its pIC50.
Response: 8.20

Prompt: Consider the compound COc1cc(NC(=O)C2CC2)ccc1Nc1ncc(Cl)c(Nc2ccccc2NC(C)=O)n1 tested on ALK tyrosine kinase receptor (Homo sapiens, UniProt Q9UM73, G1202R); state its pIC50.
Response: 7.94

Prompt: Consider the compound COc1cc(NC(=O)N2CCCC2)ccc1Nc1ncc(Cl)c(Nc2ccccc2NC(C)=O)n1 tested on ALK tyrosine kinase receptor (Homo sapiens, UniProt Q9UM73, G1202R); state its pIC50.
Response: 8.15

Prompt: Consider the compound COc1cc(N2CCCC2=O)ccc1Nc1ncc(Cl)c(Nc2ccccc2NC(C)=O)n1 tested on ALK tyrosine kinase receptor (Homo sapiens, UniProt Q9UM73, G1202R); state its pIC50.
Response: 7.80

More entries:
Prompt: Consider the compound COc1cc(NC(=O)N2CCOCC2)ccc1Nc1ncc(Cl)c(Nc2ccccc2NC(C)=O)n1 tested on ALK tyrosine kinase receptor (Homo sapiens, UniProt Q9UM73, G1202R); state its pIC50.
Response: 8.37
